The entries below are paired with their reported growth.
system: M14 melanoma; experiment: NCI-60 one-dose screen, 48 h (100 = growth as untreated, 0 = no growth, -100 = all killed); details: 10 µM unless noted
This is part of a sample that, as a whole, favours compounds with a hit. Of some 83,000 tested, about 20% had one in any assay.
MEASURED ENDPOINT: growth (%)

>>> recorded_value("Cc1cccc2sc(/N=C(\\N)C(Cl)(Cl)Cl)nc12")
101
>>> recorded_value("Nc1ncc(-c2ccc3ncnc(N4CCc5cc(F)c(Cl)cc54)c3c2)cc1CO")
-3.69
>>> recorded_value("COc1cccc(-c2nn(-c3ccccc3)cc2-c2ccnc(N3CCN(C(=O)Nc4ccc(F)cc4)CC3)c2)c1")
32.4
>>> recorded_value("CN1C(=S)N(C)C2C1NN=C1SC(c3ccccc3)=CC(=O)N12 (stereo not drawn)")
101
>>> recorded_value("COc1ccc2[nH]cc(-c3cc(N)n4nc(-c5c[nH]c6ccc(OC)cc56)cc4n3)c2c1")
-78.3
>>> recorded_value("COc1cc(N=Cc2sc(Nc3nccs3)nc2O)cc(OC)c1OC")
79.9
>>> recorded_value("CS(=O)(=O)c1ccc(-c2nc3ccccn3c2C=Nc2ccc(Cl)cc2)cc1")
43.8
>>> recorded_value("CC(C)(C)Nc1nc2c(OCCc3ccccc3)cccn2c1-c1ccccc1Cl")
0.193
>>> recorded_value("O=C(N/N=C/c1ccc([N+](=O)[O-])o1)c1[nH]c2ccc(Br)cc2c1-c1ccccc1")
-35.4
>>> recorded_value("Cc1sc2nc(NCc3ccccc3Cl)[nH]c(=O)c2c1C")
105
>>> recorded_value("C#Cc1nc(C2=C(C)C(OC(=O)CCC(=O)O)CC2)cs1 (stereo not drawn)")
103
>>> recorded_value("C#C[C@]1(O)CC[C@H]2[C@@H]3CC=C4c5sc(Nc6ccc(Cl)cn6)nc5CC[C@]4(C)[C@H]3CC[C@@]21C")
50.7
>>> recorded_value("C#Cc1nc(C2=C(C)C(O)CC2)cs1 (stereo not drawn)")
101
>>> recorded_value("Cn1cc(-c2cc(N)n3nc(-c4cn(C)c5ccc(F)cc45)cc3n2)c2cc(F)ccc21")
20.3
>>> recorded_value("COc1ccc(/C=N/NC(=O)c2[nH]c3ccc(Br)cc3c2-c2ccccc2)o1")
-1.43
>>> recorded_value("N#Cc1ccc(/C=N/NC(=O)c2[nH]c3ccc(Br)cc3c2-c2ccccc2)s1")
9
>>> recorded_value("COc1ccccc1C(=O)CSc1nc(Nc2ccc(S(N)(=O)=O)cc2)c2ccccc2n1")
94.1
>>> recorded_value("O=C(N/N=C/c1ccc[nH]1)c1[nH]c2ccc(Br)cc2c1-c1ccccc1")
13.2
>>> recorded_value("Fc1ccc(-c2cc3nc(C(Cl)Cl)nc(-c4ccccc4)n3n2)cc1")
26.9
>>> recorded_value("CC1=C(C)C(=O)C(Nc2cccc(C(F)(F)F)c2)=C(Cl)C1=O")
85.2
>>> recorded_value("CS(=O)(=O)c1ccc(-n2cc(/C=C/C(=O)c3ccc(NC(=O)CO[N+](=O)[O-])cc3)c(-c3ccc(Cl)cc3)n2)cc1")
91.6
>>> recorded_value("CCOc1ccc([C@H]2C(C(=O)c3ccc(Cl)cc3)C3(N[C@@H]2c2ccccc2)C(=O)Nc2ccc(Br)cc23)cc1 (stereo partly drawn)")
37.6
>>> recorded_value("COC1CCN(Cc2ccc3c(NNC(=O)c4cnccn4)nc4cc(F)ccc4n23)C1 (stereo not drawn)")
3.22
>>> recorded_value("CCOC(=O)c1c(NC(=O)c2cccc(C(F)(F)F)c2)sc2cc(O)ccc12")
101
>>> recorded_value("CC(=O)Oc1ccccc1C(=O)Nc1ccc(C(=O)/C=C/c2ccncc2)cc1")
30.3
>>> recorded_value("N[C@@H](Cc1cn(-c2c3ccccc3nc3ccccc23)nn1)C(=O)O")
107
>>> recorded_value("CCN1C(=S)N(c2ccccc2)C2NC(=O)N(/N=C/C=C/c3ccccc3OC)C21 (stereo not drawn)")
92.6
>>> recorded_value("Oc1c(Cl)cc(Cl)c2ccc(CN3CCCCC3)nc12")
8.72
>>> recorded_value("COc1ccc(/C=C2\\SC(=Nc3cc(C)[nH]n3)NC2=O)cc1")
98.1
>>> recorded_value("Nc1cc(-c2c[nH]c3ccccc23)nc2cc(-c3c[nH]c4ccccc34)nn12")
29.3
>>> recorded_value("Fc1ccc(-c2cc3nc(C(Cl)Cl)nc(-c4ccc(Cl)cc4)n3n2)cc1")
22.3
>>> recorded_value("COc1cc(/C=C/C(=O)c2ccc(C)cc2)ccc1Oc1nc(NCCO)nc(N2CCOCC2)n1")
-64.4
>>> recorded_value("CN1CCN(Cc2ccc(NC(=O)c3cncc(C#Cc4cnc5[nH]ncc5c4)c3)cc2C(F)(F)F)CC1")
8.74
